System: NCI-H460
Test: NCI tumour cell line growth inhibition, 48 h
Calls of active or inactive are those of the source. Rule as the data show it: active = GI50 up to about 1.1 µM and inactive = higher.
GI50: recorded values
PROPERTY MEASURED: GI50

# COMPOUND, PROPERTY MEASURED, OBSERVED
records = [
    ("CC1=CC(=O)C(C(O)(C(F)(F)F)C(F)(F)F)C(C)(C)C1 (stereo not given)", "GI50", "> 10 µM (inactive)"),
    ("CC1=C(CO)C(=O)OC(C(C)C2CCC3C4CC5OC56C(O)C(N5CC5)=CC(=O)C6(C)C4CCC23C)C1 (stereo not given)", "GI50", "9.44 µM (inactive)"),
    ("O=[N+]([O-])c1ccc(NC2OCC(O)C(O)C2O)cc1 (stereo not given)", "GI50", "> 100 µM (inactive)"),
    ("O=c1oc2ccc(Cl)cc2c2ccccc12", "GI50", "> 100 µM (inactive)"),
    ("CO/N=C1\\CC(NC(=O)C(F)(F)F)c2ccsc21 (stereo not given)", "GI50", "> 100 µM (inactive)"),
    ("Cc1cc(C)n(CC(Cn2nc(C)cc2C)=C(/C(Cl)=C(/Cl)Nc2ccc([N+](=O)[O-])cc2)[N+](=O)[O-])n1", "GI50", "3.33 µM (inactive)"),
    ("CC(C)NC(=O)OCc1c(COC(=O)NC(C)C)n(C)c2c1ccc1ccsc12", "GI50", "3.24 µM (inactive)"),
    ("CC1(C)OC2OC(/C=C/[N+](=O)[O-])C3OC(C)(C)OC3C2O1 (stereo not given)", "GI50", "15.4 µM (inactive)"),
    ("CCN(CC)C(=O)CCn1cc(F)c(=O)[nH]c1=O", "GI50", "> 100 µM (inactive)"),
    ("CCOC(=O)Cn1c(=O)ccn(COCCO)c1=O", "GI50", "> 100 µM (inactive)"),
]

###

Test system: HCT-116
Assay: NCI tumour cell line growth inhibition, 48 h
Calls of active or inactive are those of the source. Cut-off read from the data, not from the text of the source: active = GI50 up to about 1.1 µM and inactive = higher.
GI50: recorded values
PROPERTY MEASURED: GI50

# COMPOUND, PROPERTY MEASURED, OBSERVED
data = [
    ("C[Si](C)(C)C(Sc1ccccc1)(Sc1ccccc1)Sc1ccccc1", "GI50", "60.3 µM (inactive)"),
    ("C=CCNC(=S)N/N=C1\\C(=O)N(CN2CCOCC2)c2ccc([N+](=O)[O-])cc21", "GI50", "6.46 µM (inactive)"),
    ("NCCCCNCCCNC(=O)CNC(=O)CC(O)C(N)CCCC(NC(=O)C(CN)NC(=O)C(O)CNC(=O)CC(N)c1ccc(O)cc1)C(=O)O (stereo not given)", "GI50", "> 10 µM (inactive)"),
    ("CC(C)CCC[C@@H](C)C1CCC2[C@@H]3CCC4CC(CCC=C(c5cc(Cl)c(OC(=O)c6ccccc6)c(C(=O)O)c5)c5cc(Cl)c(OC(=O)c6ccccc6)c(C(=O)O)c5)CC[C@]4(C)C3CC[C@@]21C (stereo not given in full)", "GI50", "> 100 µM (inactive)"),
    ("COc1cc(C2SCC(=O)N2NC(=O)c2ccc(NC(C)=O)cc2)cc(OC)c1OC (stereo not given)", "GI50", "> 100 µM (inactive)"),
    ("COc1c(C)c2c(c3c1c(=O)c1ccccc1n3C)C=CC(C)(C)O2", "GI50", "18.5 µM (inactive)"),
    ("CNC(=S)NC(=S)N(C)C", "GI50", "4.71 µM (inactive)"),
    ("CC1(c2cccc3c2C2(O)C=CC4(CCC32)OCCO4)OCCO1 (stereo not given)", "GI50", "> 100 µM (inactive)"),
    ("CC1=CC(=O)C(C(O)(C(F)(F)F)C(F)(F)F)C(C)(C)C1 (stereo not given)", "GI50", "> 10 µM (inactive)"),
    ("COc1cccc(N2C(=O)CS(=O)(=O)C2c2cccc(Oc3ccccc3)c2)c1 (stereo not given)", "GI50", "11.1 µM (inactive)"),
]

Entry source: ChEMBL document CHEMBL1201862
